All figures here come from patent US20240368115A1.

Molecular target: 5-HT2A receptor (Homo sapiens, UniProt P28223)
Experiment: Calcium flux test for 5-HT2A receptor
Format: cell-based
Conditions: CHO cell strain stably expressing 5-HT2A receptor; positive control ketanserin 10^−7 M
Excerpt: • Fluo-4 calcium flux detection kit was purchased from Invitrogen; a CHO cell strain stably expressing 5-HT2A receptor was purchased from PerkinElmer; serotonin was purchased from Sigma; ketanserin was purchased from Targetmol; polylysine-coated 384-well plates and 384-well compound plates were purchased from Greiner Bio-One. […] Inhibition rate (Inhibition %)=(negative control reading value−compound reading value)/(negative control reading value−positive control reading value)×100%
Quantity: 5-HT2A Max Inh % (%)
Enter your answer as a number in %; do not include the unit.

# annotated cases, reported 5-HT2A Max Inh % shown
O=C1Nc2cc(OCCCCN3CCN(c4ccc(Cl)s4)CC3)ccc2C2CC12 (centres unmarked) [Example 51]    99.8
O=C1Nc2cc(OCCCCN3CCN(c4cccc(O)c4Cl)CC3)ccc2C2CC12 (centres unmarked) [Example 38]    98.1
O=C1Nc2cc(OCCCCN3CCN(c4cccc5sccc45)CC3)ccc2C2CC12 (centres unmarked) [Example 42]    100.6
O=C1Nc2cc(OCCCCN3CCN(c4cccc5c4CCC5)CC3)ccc2C2CC12 (single isomer, unassigned) [Example 43-P1]    100.7
O=C1Nc2cc(OCCCCN3CCN(c4cccc5c4CCO5)CC3)ccc2C2CC12 (centres unmarked) [Example 45]    100.1

5-HT2A Max Inh % for O=C1Nc2cc(OCCCCN3CCN(c4cccc5c4CCO5)CC3)ccc2C2CC12 (single isomer, unassigned) [Example 45-P1] is 99.8

5-HT2A Max Inh % for O=C1Nc2cc(OCCCCN3CCN(c4cccc5ccsc45)CC3)ccc2C2CC12 (centres unmarked) [Example 48] is 100.5

5-HT2A Max Inh % for O=C1Nc2cc(OCCCCN3CCN(c4cccc5c4OCC5)CC3)ccc2C2CC12 (single isomer, unassigned) [Example 44-P2] is 99.7

----------
Overview of reported D2L Max Act % across a group of molecules:
Target: D2L receptor (Homo sapiens, UniProt P14416)
Construct: expressed in transfected cells
Sequence (P14416 whole entry): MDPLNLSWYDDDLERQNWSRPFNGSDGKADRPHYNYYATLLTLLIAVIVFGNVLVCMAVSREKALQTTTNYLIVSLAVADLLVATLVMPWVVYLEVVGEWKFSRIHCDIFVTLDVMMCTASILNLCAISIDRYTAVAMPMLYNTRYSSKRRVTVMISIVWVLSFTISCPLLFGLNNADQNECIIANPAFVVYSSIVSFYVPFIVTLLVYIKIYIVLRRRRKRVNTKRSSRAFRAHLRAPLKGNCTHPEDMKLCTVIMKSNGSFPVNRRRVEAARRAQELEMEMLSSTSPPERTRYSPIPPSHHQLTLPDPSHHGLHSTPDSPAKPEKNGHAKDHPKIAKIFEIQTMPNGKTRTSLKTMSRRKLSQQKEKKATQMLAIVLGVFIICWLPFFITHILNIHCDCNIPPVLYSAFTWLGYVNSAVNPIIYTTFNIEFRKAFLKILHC
Experiment: D2L receptor cAMP agonist test
Type: cell-based
Conditions: HEK293 cell strain stably expressing D2L receptor; positive control dopamine 1 μM
Enter your answer as a number in %; do not include the unit.

O=C1Nc2cc(OCCCCN3CCN(c4cccc(Cl)c4Cl)CC3)ccc2[C@@H]2C[C@H]12 (single isomer, unassigned) [Example 1-P2]    33.1
O=C1Nc2cc(OCCCCN3CCN(c4cccc5c4CCO5)CC3)ccc2C2CC12 (single isomer, unassigned) [Example 45-P2]    41.5
O=C1Nc2cc(OCCCCN3CCN(c4cccc5c4CCO5)CC3)ccc2C2CC12 (single isomer, unassigned) [Example 45-P1]    28.0
O=C1Nc2cc(OCCCCN3CCN(c4cccc5sccc45)CC3)ccc2C2CC12 (single isomer, unassigned) [Example 42-P2]    32.6
O=C1Nc2cc(OCCCCN3CCN(c4cccc5sc(Cl)cc45)CC3)ccc2C2CC12 (stereo not drawn) [Example 49]    56.3
O=C1Nc2cc(OCCCCN3CCN(c4cccc5sccc45)CC3)ccc2C2CC12 (stereo not drawn) [Example 42]    32.7

D2L Max Act % for O=C1Nc2cc(OCCCCN3CCN(c4cccc5c4CCC5)CC3)ccc2C2CC12 (stereo not drawn) [Example 43] is 42.8

D2L Max Act % for O=C1Nc2cc(OCCCCN3CCN(c4cccc5[nH]ccc45)CC3)ccc2C2CC12 (stereo not drawn) [Example 52] is 65.3

D2L Max Act % for O=C1Nc2cc(OCCCCN3CCN(c4cccc5c4CC(F)(F)C5)CC3)ccc2C2CC12 (stereo not drawn) [Example 46] is 43.4

----------
Test: Pharmacokinetic test in mice
Format: in vivo
Settings: male, ICR, mouse, plasma, po, 5 mg/kg, oral intragastric, single dose 5 mg/kg, read-out: AUC(0-inf)
Overview of reported AUC(0-inf) across a group of compounds:
Answer with the figure and its unit, nothing else.

O=C1Nc2cc(OCCCCN3CCN(c4cccc(Cl)c4Cl)CC3)ccc2[C@@H]2C[C@H]12 (single isomer, unassigned) [Example 1-P2]    7100 ng·h/mL
O=C1Nc2cc(OCCCCN3CCN(c4cccc(Cl)c4Cl)CC3)ccc2C2CC12 (stereo not drawn) [Example 1]    7160 ng·h/mL

Attention now shifts to the item below.
AUC(0-inf) for O=C1Nc2cc(OCCCCN3CCN(c4cccc5c4OC(F)(F)O5)CC3)ccc2C2CC12 (stereo not drawn) [Example 41] is 9970 ng·h/mL

----------
Target: D2S receptor (Homo sapiens)
Construct: expressed in transfected cells
Sequence (P14416 1-414 isoform P14416-2): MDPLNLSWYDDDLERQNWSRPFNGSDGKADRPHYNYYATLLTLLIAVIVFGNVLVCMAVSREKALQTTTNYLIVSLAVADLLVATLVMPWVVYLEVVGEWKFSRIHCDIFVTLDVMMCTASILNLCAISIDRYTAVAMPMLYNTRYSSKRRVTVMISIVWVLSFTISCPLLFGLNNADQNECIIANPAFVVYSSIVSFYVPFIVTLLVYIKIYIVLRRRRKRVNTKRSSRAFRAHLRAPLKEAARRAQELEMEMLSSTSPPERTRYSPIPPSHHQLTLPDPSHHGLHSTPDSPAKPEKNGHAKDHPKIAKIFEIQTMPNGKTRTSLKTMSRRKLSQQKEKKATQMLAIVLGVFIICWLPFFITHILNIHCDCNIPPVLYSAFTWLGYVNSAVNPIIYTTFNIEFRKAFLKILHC
Assay: D2S receptor cAMP agonist test
Format: cell-based
Details: HEK293 cell strain stably expressing D2S receptor; positive control dopamine 1×10^−7 M
Quantity: D2S Max Act %

# annotated cases, reported D2S Max Act % shown
O=C1Nc2cc(OCCCCN3CCN(c4cccc5c4OC(F)(F)O5)CC3)ccc2C2CC12 (stereo not shown)    115.0%
O=C1Nc2cc(OCCCCN3CCN(c4cccc5c4CCC5)CC3)ccc2C2CC12 (single isomer, unassigned) [Example 43-P1]    123.1%
O=C1Nc2cc(OCCCCN3CCN(c4cccc5c4CC(F)(F)C5=O)CC3)ccc2C2CC12 (stereo not shown)    102.9%

D2S Max Act % for O=C1Nc2cc(OCCCCN3CCN(c4cccc5sccc45)CC3)ccc2C2CC12 (single isomer, unassigned) [Example 42-P1] is 102.0%

----------
Target: 5-HT1A receptor (Homo sapiens, UniProt P08908)
Construct: expressed in transfected cells
Sequence (P08908 1-422): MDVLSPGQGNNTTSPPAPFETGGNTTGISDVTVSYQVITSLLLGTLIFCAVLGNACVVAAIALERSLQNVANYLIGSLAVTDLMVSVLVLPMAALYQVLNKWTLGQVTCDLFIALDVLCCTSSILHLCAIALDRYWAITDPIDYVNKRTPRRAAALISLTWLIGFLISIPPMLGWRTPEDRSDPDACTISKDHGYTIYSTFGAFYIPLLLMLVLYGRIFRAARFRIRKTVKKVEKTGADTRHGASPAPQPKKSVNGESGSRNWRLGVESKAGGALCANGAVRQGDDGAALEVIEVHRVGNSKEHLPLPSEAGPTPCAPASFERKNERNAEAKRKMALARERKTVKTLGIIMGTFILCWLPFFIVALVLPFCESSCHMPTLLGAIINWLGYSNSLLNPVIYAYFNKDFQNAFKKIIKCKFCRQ
Assay: 5-HT1A receptor cAMP agonist test
Assay type: cell-based
Conditions: HEK293 cell strain stably expressing 5-HT1A receptor; positive control serotonin 10^−6 M
Label satisfied when 5-HT1A Max Act % is strictly below 60%; otherwise label not satisfied.

Exercise: Given the entry O=C1Nc2cc(OCCCCN3CCN(c4cccc5c4CCO5)CC3)ccc2C2CC12 (stereo not drawn) [Example 45] , would its reported 5-HT1A Max Act % be below 60%?
Key: satisfied

Exercise: Given the entry O=C1Nc2cc(OCCCCN3CCN(c4cccc5sccc45)CC3)ccc2C2CC12 (stereo not drawn) [Example 42] , would its reported 5-HT1A Max Act % be below 60%?
Key: satisfied

Exercise: Given the entry O=C1Nc2cc(OCCCCN3CCN(c4cccc5c4CCC5)CC3)ccc2C2CC12 (stereo not drawn) [Example 43] , would its reported 5-HT1A Max Act % be below 60%?
Key: not satisfied

Exercise: Given the entry O=C1COc2ccc(OCCCCN3CCN(c4cccc(Cl)c4Cl)CC3)cc2N1 [RP5063, reference compound] , would its reported 5-HT1A Max Act % be below 60%?
Key: satisfied

Exercise: Given the entry O=C1Nc2cc(OCCCCN3CCN(c4cccc5ccsc45)CC3)ccc2C2CC12 (stereo not drawn) [Example 48] , would its reported 5-HT1A Max Act % be below 60%?
Key: satisfied
